ASSAY PROTOCOL: HPLC-based logD analysis
Format: physicochemical
PARTICULARS: polymeric ODP-50 HPLC column, ODP-50 column, phosphate buffer pH 7.4, n=3
READOUT LABEL: chromatographic logD

Input COCC1=C(C(=O)OCC[18F])[C@H](c2ccc(F)c(F)c2)N(C(=O)NCCCN2CCC(c3cccc(NC(C)=O)c3)CC2)C(=O)N1 [[^18F]FE@SNAP] . Output chromatographic logD: 3.83
